Quick list: fold resistance (FR), strain L per entry.
Test system: clinically isolated HIV strain L
Assay: Antiviral spectrum, cellular assay (fold resistance), strain L
Type: cell-based
Settings: FR=EC50(mutant strain)/EC50(HIV-1 strain LAI)

As a guide, the following entries are already answered.
COMPOUND	fold resistance (FR), strain L
CC(C)CN(C[C@@H](O)[C@H](Cc1ccccc1)NC(=O)O[C@H]1CO[C@H]2OCC[C@H]21)S(=O)(=O)c1ccc2nc(NC(=O)CN3CCCC3)sc2c1.O=C(O)/C=C/C(=O)O	0.1
CC(C)CN(CC(O)C(Cc1ccccc1)NC(=O)OC1COC2OCCC12)S(=O)(=O)c1ccc2nc(NC(=O)CN3CCCC3)sc2c1 (centres unmarked) [Compound 12]	0.1
Cc1cccc(C)c1OCC(=O)N[C@@H](Cc1ccccc1)[C@H](O)CN(CC(C)C)S(=O)(=O)c1ccc2nc(NC(=O)CN3CCCC3)sc2c1	2.1
CC(C)CN(CC(O)C(Cc1ccccc1)NC(=O)OC1COC2OCCC12)S(=O)(=O)c1ccc2nc(NC(=O)CN(C)C)sc2c1 (mixture of isomers) [Compound 3]	0.3

What reported fold resistance (FR), strain L corresponds to `CC(C)CN(C[C@@H](O)[C@H](Cc1ccccc1)NC(=O)O[C@H]1CO[C@H]2OCC[C@H]21)S(=O)(=O)c1ccc2nc(NCCN(C)C)sc2c1` on clinically isolated HIV strain L?
0.1

====

System: clinically isolated HIV strain D
Assay: Antiviral spectrum, cellular assay (fold resistance), strain D
Type: cell-based
Conditions: FR=EC50(mutant strain)/EC50(HIV-1 strain LAI)
Quick list: fold resistance (FR), strain D per entry.
Just the number, please.

As a guide, the following entries are already answered.
> print(dat)
                                   compound  recorded.value
1  CC(C)CN(CC(O)C(Cc1ccccc1)NC(=O)OC1COC2OCCC12)S(=O)(=O)c1ccc2nc(NC(=O)CN(C)C)sc2c1 (centres unmarked) [Compound 11]             0.3
2  CC(C)CN(C[C@@H](O)[C@H](Cc1ccccc1)NC(=O)O[C@H]1CCOC1)S(=O)(=O)c1ccc2nc(NC(=O)CN3CCN(C)CC3)sc2c1.O=C(O)C(F)(F)F             0.6
3  CC(C)CN(CC(O)C(Cc1ccccc1)NC(=O)OC1COC2OCCC12)S(=O)(=O)c1ccc2nc(NC(=O)CN3CCCC3)sc2c1 (centres unmarked) [Compound 12]             0.4
4  CC(C)CN(C[C@@H](O)[C@H](Cc1ccccc1)NC(=O)O[C@H]1CO[C@H]2OCC[C@H]21)S(=O)(=O)c1ccc2nc(NCCN(C)C)sc2c1             0.2

What reported fold resistance (FR), strain D corresponds to CC(=O)Nc1nc2ccc(S(=O)(=O)N(CC(C)C)CC(O)C(Cc3ccccc3)NC(=O)OC3COC4OCCC34)cc2s1 (mixture of isomers) on clinically isolated HIV strain D?
0.7

====

Tested on: virus strain F (R13025)
Assay: microbe, parasite or virus in culture
Assay type: cell-based, HIV
Conditions: Human immunodeficiency virus 1, MT4, read-out: HIV-AVE-MT4-MTT-R13025-2-002 pEC50, virus strain F (R13025), MT4 cells, MTT (converted)
Quick list: log10 of EC50 per entry.
Please note: log10 values; quantity EC50; unit nM.

As a guide, the following entries are already answered.
COMPOUND	RECORDED_VALUE
CC(C)CN(C[C@@H](O)[C@H](Cc1ccccc1)NC(=O)C(NC(=O)CNCc1cccc(F)c1)C(C)(C)C)S(=O)(=O)c1ccc2nc(NCCCN(C)C)sc2c1 (stereo partly drawn)	1.97
CC(C)CN(C[C@@H](O)[C@H](Cc1ccccc1)NC(=O)O[C@H]1CO[C@H]2OCC[C@H]21)S(=O)(=O)c1ccc2nc(N3CCN(C)CC3)sc2c1	2.20
CC(C)CN(C[C@@H](O)[C@H](Cc1ccccc1)NC(=O)OCc1cncs1)S(=O)(=O)c1ccc2nc(NC(=O)[C@@H]3CCCN3C)sc2c1	1.34

Query: log10 of EC50; subject: `CC(=O)Nc1nc2ccc(S(=O)(=O)N(CC(C)C)C[C@@H](O)[C@H](Cc3ccccc3)NC(=O)COc3ccon3)cc2s1`
2.12

Query: log10 of EC50; subject: `CC(C)CN(C[C@@H](O)[C@H](Cc1ccccc1)NC(=O)OCc1cncs1)S(=O)(=O)c1ccc2nc(NC(=O)c3ccccn3)sc2c1`
2.09

Query: log10 of EC50; subject: `CC(C)CN(C[C@@H](O)[C@H](Cc1ccccc1)NC(=O)O[C@H]1CO[C@H]2OCC[C@H]21)S(=O)(=O)c1ccc2nc(N(C)CCN3CCCC3)sc2c1`
2.83
